// values below are reported IC50
# assay-system: intracellular GCN2 (phosphorylation of the GCN2 substrate eIF2α) (Homo sapiens)
# Sequence (Q9P2K8 whole entry): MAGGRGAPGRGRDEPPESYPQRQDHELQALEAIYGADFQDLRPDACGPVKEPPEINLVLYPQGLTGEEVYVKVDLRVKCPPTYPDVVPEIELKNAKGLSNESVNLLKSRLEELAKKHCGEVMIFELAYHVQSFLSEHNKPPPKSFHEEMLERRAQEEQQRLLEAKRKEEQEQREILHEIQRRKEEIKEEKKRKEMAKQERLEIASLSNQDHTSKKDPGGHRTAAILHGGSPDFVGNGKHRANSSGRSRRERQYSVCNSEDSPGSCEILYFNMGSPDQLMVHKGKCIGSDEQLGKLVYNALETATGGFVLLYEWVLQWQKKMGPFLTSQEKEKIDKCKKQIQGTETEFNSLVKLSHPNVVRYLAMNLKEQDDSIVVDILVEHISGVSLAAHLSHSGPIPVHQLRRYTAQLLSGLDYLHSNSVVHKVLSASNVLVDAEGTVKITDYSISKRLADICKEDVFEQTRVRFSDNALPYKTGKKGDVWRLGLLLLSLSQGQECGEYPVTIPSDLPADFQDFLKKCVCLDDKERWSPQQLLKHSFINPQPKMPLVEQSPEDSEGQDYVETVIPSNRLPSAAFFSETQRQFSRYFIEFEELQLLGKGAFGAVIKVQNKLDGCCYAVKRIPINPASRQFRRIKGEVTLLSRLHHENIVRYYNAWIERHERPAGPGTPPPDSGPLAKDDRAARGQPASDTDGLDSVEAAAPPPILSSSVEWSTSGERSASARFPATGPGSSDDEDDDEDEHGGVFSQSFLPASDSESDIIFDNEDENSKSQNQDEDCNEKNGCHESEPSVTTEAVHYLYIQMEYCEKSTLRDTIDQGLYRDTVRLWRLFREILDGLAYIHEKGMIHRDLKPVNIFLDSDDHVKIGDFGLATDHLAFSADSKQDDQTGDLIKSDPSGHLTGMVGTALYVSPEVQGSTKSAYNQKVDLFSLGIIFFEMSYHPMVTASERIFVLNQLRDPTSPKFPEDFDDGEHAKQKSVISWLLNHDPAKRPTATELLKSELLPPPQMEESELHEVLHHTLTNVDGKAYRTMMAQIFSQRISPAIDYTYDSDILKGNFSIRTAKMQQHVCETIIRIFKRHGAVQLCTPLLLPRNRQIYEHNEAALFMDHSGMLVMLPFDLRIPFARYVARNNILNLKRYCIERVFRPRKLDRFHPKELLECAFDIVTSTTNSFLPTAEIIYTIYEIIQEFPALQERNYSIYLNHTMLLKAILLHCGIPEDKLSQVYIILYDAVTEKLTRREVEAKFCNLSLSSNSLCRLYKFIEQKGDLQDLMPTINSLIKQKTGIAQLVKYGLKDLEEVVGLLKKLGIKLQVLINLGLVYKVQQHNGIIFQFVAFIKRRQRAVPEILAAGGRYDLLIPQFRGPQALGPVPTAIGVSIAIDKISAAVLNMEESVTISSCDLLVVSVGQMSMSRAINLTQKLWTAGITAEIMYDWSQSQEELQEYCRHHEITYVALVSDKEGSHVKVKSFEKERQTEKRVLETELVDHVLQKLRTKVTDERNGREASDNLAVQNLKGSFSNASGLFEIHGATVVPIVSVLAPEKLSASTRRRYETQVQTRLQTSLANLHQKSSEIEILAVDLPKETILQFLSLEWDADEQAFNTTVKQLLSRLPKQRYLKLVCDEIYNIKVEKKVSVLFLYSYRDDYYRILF
# protocol-summary: GCN2 cellular inhibition assay (AlphaScreen SureFire P-eIF2α Ser51, borrelidin-treated U2OS cells)
# Type: cell-based
# condition-summary: compounds of Formula IV; biomarker assay, phosphorylated eIF2α Ser51 in borrelidin-treated U2OS cells
readout-label: IC50

INSERT INTO assay_data (compound, assay_system, readout_label, result) VALUES
  ('C[C@H]1CCCCN1c1ccnc(-c2cnc3cnc(C(F)F)cn23)n1', 'intracellular GCN2 (phosphorylation of the GCN2 substrate eIF2α) (Homo sapiens)', 'IC50', '> 5 µM'),
  ('COC1CC(c2cn[nH]c2)CN(c2ccnc(-c3cnc4cnc(C(F)(F)F)cn34)n2)C1 (centres unmarked)', 'intracellular GCN2 (phosphorylation of the GCN2 substrate eIF2α) (Homo sapiens)', 'IC50', '0.5 to 5 µM'),
  ('CC1C(c2cn[nH]c2)NCCN1c1ccnc(-c2cnc3cnc(Br)cn23)n1 (single isomer, unassigned) [IV-351]', 'intracellular GCN2 (phosphorylation of the GCN2 substrate eIF2α) (Homo sapiens)', 'IC50', '< 0.5 µM'),
  ('CS(=O)(=O)NC[C@@H]1CN(c2nc(-c3cnc4cnc(C(F)(F)F)cn34)ns2)CCO1', 'intracellular GCN2 (phosphorylation of the GCN2 substrate eIF2α) (Homo sapiens)', 'IC50', '> 5 µM'),
  ('CC1CN(c2cc(N3CCC3)nc(-c3cnc4cnc(C(F)(F)F)cn34)n2)C(C)C(c2cn[nH]c2)N1 (centres unmarked)', 'intracellular GCN2 (phosphorylation of the GCN2 substrate eIF2α) (Homo sapiens)', 'IC50', '0.5 to 5 µM'),
  ('CC1CCCN(c2ccnc(-c3cnc4cnc(C(F)(F)F)cn34)n2)C1 (centres unmarked)', 'intracellular GCN2 (phosphorylation of the GCN2 substrate eIF2α) (Homo sapiens)', 'IC50', '> 5 µM'),
  ('CC1CN(c2cncc(-c3cnc4cnc(C(F)(F)F)cn34)n2)C(C)C(c2cn[nH]c2)N1 (centres unmarked) [IV-577]', 'intracellular GCN2 (phosphorylation of the GCN2 substrate eIF2α) (Homo sapiens)', 'IC50', '0.5 to 5 µM'),
  ('CC1CN(c2ccnc(-c3cnc4cnc(C(F)(F)F)cn34)n2)CC(c2c[nH]cn2)O1 (single isomer, unassigned) [IV-406]', 'intracellular GCN2 (phosphorylation of the GCN2 substrate eIF2α) (Homo sapiens)', 'IC50', '> 5 µM');

###

# assay-system: UniProt:Q9P2K8
# protocol-summary: GCN2 enzyme inhibition assay (Transcreener ADP2 fluorescence polarization)
# Format: biochemical
# condition-summary: Enzyme activity for compounds of Formula IV; Ki(app), 280 μM ATP, 25° C.
// values below are reported Ki
readout-label: Ki

INSERT INTO results (compound, result) VALUES
  ('FC(F)c1cn2c(-c3nccc(N4CCC(C5CCOCC5)C4)n3)cnc2cn1 (centres unmarked)', '100 to 1000 nM'),
  ('FC(F)(F)c1cn2c(-c3nccc(N4CCC(C5CCOCC5)C4)n3)cnc2cn1 (centres unmarked)', '100 to 1000 nM'),
  ('CC1CN(c2cc(F)cc(-c3cnc4cnc(C(F)(F)F)cn34)n2)C(C)C(c2cn[nH]c2)N1 (centres unmarked)', '< 10 nM'),
  ('O=C1NCCC12CCN(c1ccnc(-c3cnc4cnc(C(F)F)cn34)n1)C2 (centres unmarked)', '100 to 1000 nM'),
  ('Cc1[nH]ncc1C1NC(C)CN(c2ccnc(-c3cnc4cnc(Cl)cn34)n2)C1C (single isomer, unassigned) [IV-282]', '< 10 nM'),
  ('NC(=O)C1CCN(c2ccnc(-c3cnc4cnc(C(F)F)cn34)n2)C1 (centres unmarked)', '100 to 1000 nM'),
  ('OC1CCN(c2ccnc(-c3cnc4cnc(C(F)(F)F)cn34)n2)CC1c1cn[nH]c1 (single isomer, unassigned) [IV-623]', '< 10 nM'),
  ('FC(F)c1cn2c(-c3nccc(N4CC5CCC(C4)O5)n3)cnc2cn1', '100 to 1000 nM');

###

# assay-system: GCN2 kinase (Homo sapiens, UniProt Q9P2K8)
# Sequence (Q9P2K8 whole entry): as above
# protocol-summary: GCN2 enzyme inhibition assay (Transcreener ADP2 fluorescence polarization)
# Assay type: biochemical
# condition-summary: Enzyme activity for compounds of Formula IV; Ki(app), 280 μM ATP, 25° C.
readout-label: Ki

INSERT INTO results (compound, readout_label, result) VALUES
  ('CC1CN(c2ccnc(-c3cnc4cnc(C(F)(F)F)cn34)n2)CC(c2cn[nH]c2)N1 (single isomer, unassigned) [IV-460]', 'Ki', '100 to 1000 nM'),
  ('CC(=O)N1CC=C(c2ccnc(-c3cnc4cnc(C(F)F)cn34)n2)CC1 [IV-156]', 'Ki', '100 to 1000 nM'),
  ('FC(F)(F)c1cn2c(-c3nccc(N4CCNC(c5cn[nH]c5)C4)n3)cnc2cn1 (centres unmarked) [IV-211]', 'Ki', '< 10 nM'),
  ('C[C@@H]1CC[C@H](C(N)=O)CN1c1ccnc(-c2cnc3cnc(C(F)F)cn23)n1 (racemic) [IV-106]', 'Ki', '10 to 100 nM'),
  ('CC(=O)N1CCN(c2cccc(-c3cnc4cnccn34)n2)CC1 [IV-2]', 'Ki', '100 to 1000 nM'),
  ('C[C@H]1[C@@H](c2cn[nH]c2)N(C)CCN1c1ccnc(-c2cnc3cnc(Br)cn23)n1 (relative stereo) [IV-392]', 'Ki', '< 10 nM'),
  ('O=C1NCCN2CCN(c3ccnc(-c4cnc5cnc(C(F)F)cn45)n3)CC12 (centres unmarked) [IV-86]', 'Ki', '100 to 1000 nM'),
  ('CS(=O)(=O)NC[C@@H]1CN(c2nc(-c3cnc4cnc(C(F)(F)F)cn34)ns2)CCO1 [IV-705]', 'Ki', '100 to 1000 nM');

###

// values below are reported Ki
# assay-system: GCN2 kinase (Homo sapiens, UniProt Q9P2K8)
# protocol-summary: GCN2 enzyme inhibition assay (Transcreener ADP2 fluorescence polarization)
# Format: biochemical
# condition-summary: compounds of Formula II; 280 μM ATP, 4 nM GCN2 kinase
readout-label: Ki

INSERT INTO measurements (compound, assay_system, result) VALUES
  ('CS(=O)(=O)NCC1CCCN(c2cc(-c3cnc4ccc(C(F)F)nn34)c(F)cn2)C1 (stereo not shown)', 'GCN2 kinase (Homo sapiens, UniProt Q9P2K8)', '< 10 nM'),
  ('CS(=O)(=O)NCC1CN(c2cc(-c3cnc4ccc(C(F)F)nn34)ncn2)CC2(CC2)O1 (stereo not shown) [II-384]', 'GCN2 kinase (Homo sapiens, UniProt Q9P2K8)', '< 10 nM'),
  ('CN(CC1CCCN(c2cc(-c3cnc4ccc(C(F)F)nn34)ncn2)C1)S(C)(=O)=O (stereo not shown)', 'GCN2 kinase (Homo sapiens, UniProt Q9P2K8)', '10 to 1000 nM'),
  ('CC1CC(C(N)=O)C(C)N(c2cc(-c3cnc4ccc(C(F)(F)F)nn34)ncn2)C1 (racemic) [II-719]', 'GCN2 kinase (Homo sapiens, UniProt Q9P2K8)', '10 to 1000 nM');

###

# assay-system: intracellular GCN2 (phosphorylation of the GCN2 substrate eIF2α) (Homo sapiens)
# protocol-summary: GCN2 cellular inhibition assay (AlphaScreen SureFire P-eIF2α Ser51, borrelidin-treated U2OS cells)
# Type: cell-based
# condition-summary: compounds of Formula II; biomarker assay, phosphorylated eIF2α Ser51 in borrelidin-treated U2OS cells
readout-label: IC50

INSERT INTO results (compound, result) VALUES
  ('FC(F)c1ccc2ncc(-c3cc(N4CCC(Cc5ccn[nH]5)CC4)ncn3)n2n1', '500 to 5000 nM'),
  ('FC(F)(F)c1ccc2ncc(-c3ccnc(N4CCCC(c5c[nH]cn5)C4)c3)n2n1 (centres unmarked) [II-740]', '< 500 nM'),
  ('CS(=O)(=O)NC1(C2CCN(c3cc(-c4cnc5ccc(C(F)F)nn45)ncn3)C2)CC1 (centres unmarked)', '500 to 5000 nM'),
  ('CS(=O)(=O)N1CCN2CCN(c3cc(-c4cnc5ccc(C(F)F)nn45)ccn3)CC2C1 (centres unmarked)', '500 to 5000 nM'),
  ('OCCn1cc(-c2cc(-c3cnc4ccc(C(F)F)nn34)ccn2)cn1', '500 to 5000 nM'),
  ('CS(C)(=O)=NC[C@@H]1CN(c2cc(-c3cnc4ccc(C(F)F)nn34)ncn2)CCO1', '> 5000 nM'),
  ('NS(=O)(=O)CC1CCCN(c2cc(-c3cnc4ccc(C(F)F)nn34)ccn2)C1 (centres unmarked)', '500 to 5000 nM'),
  ('O=S(=O)(N[C@H]1CCCN(c2cc(-c3cnc4ccc(C(F)F)nn34)ncn2)C1)C1COC1', '500 to 5000 nM');
